- Test system: HEK-293T
- test_summary: Multiplex assay against HEK293T
- Assay type: toxicity, cell-based
- test_conditions: human, 24 h, 10 µM, compound concentration 10 uM, replicate 2
Reported Population Membrane Permeable-Phenotype (%) is given for each of the following molecules.
Express the result in % but write the number alone.

In the examples that follow, each entry is paired with its recorded Population Membrane Permeable-Phenotype (%).
[
  {
    "molecule": "Nc1nc2c(c(N3CCNCC3)n1)CCC1=C2[C@@H]2CCCC[C@@H]2O1",
    "system": "HEK-293T",
    "unit": "%",
    "meas_value": 2
  },
  {
    "molecule": "COc1cc2c(NC3CCN(C(C)C)CC3)nc(N3CCC(F)(F)CC3)nc2cc1OCCCN1CCCC1",
    "system": "HEK-293T",
    "unit": "%",
    "meas_value": 1
  },
  {
    "molecule": "CCn1c(-c2nonc2N)nc2cnc(Oc3cccc(NC(=O)c4ccc(OCCN5CCOCC5)cc4)c3)cc21 [GSK-269962A]",
    "system": "HEK-293T",
    "unit": "%",
    "meas_value": 5
  },
  {
    "molecule": "C[C@@H]1CN(c2cc(-c3nn(C)c4ccc(OC5(C)CC5)cc34)ncn2)C[C@H](C)O1",
    "system": "HEK-293T",
    "unit": "%",
    "meas_value": 5
  }
]

Query string: # Population Membrane Permeable-Phenotype (%) lookup, item c1ccc2oc(-c3csc(C4CCN(Cc5nc6ncccc6[nH]5)CC4)n3)cc2c1
Result string: 6
